- procedure-summary: CO release from aldehyde prodrug compounds in TBHP plus rpmi solution
- measurement-parameters: TBHP plus rpmi, one day
observable: CO release after one day

Which CO release after one day is reported for this molecule? CC(C)(C)C1NC(C(=O)O)CS1 (racemic)
20%

* * *

- procedure-summary: CO release from aldehyde prodrug compounds in TBHP plus rpmi solution
- measurement-parameters: 1.5 ml rpmi + 0.5 ml TBHP, 37° C.
observable: CO release

- compound: "CC1C(c2ccccc2)OC(C(C)(C)C)N1C (stereo not drawn)"
  CO release: "No hydrolysis → No CO"
- compound: "COC(=O)C1CSC(C(C)(C)C)N1 (racemic) [compound 10]"
  CO release: "released CO"
- compound: "CC(C)(C)C=NNC(=O)c1ccccc1"
  CO release: "No hydrolysis → No CO"
- compound: "CC(C)(C)C1Nc2ccccc2CO1 (stereo not drawn)"
  CO release: "No hydrolysis → No CO"

Which CO release is reported for this compound? `CC(C)(C)/C=N/NC(=O)Nc1ccccc1`
No hydrolysis → No CO

Which CO release is reported for this compound? CC(C)(C)C1NCCS1 (racemic) [compound 11, 2-tert-butyl-thiazolidine]
released CO

Which CO release is reported for this compound? CC(C)(C)C1NC(C(=O)O)CS1 (racemic) [compound 9]
released CO
